IC50 values by entry
Biological target: UniProt P35968
Sequence (P35968 whole entry): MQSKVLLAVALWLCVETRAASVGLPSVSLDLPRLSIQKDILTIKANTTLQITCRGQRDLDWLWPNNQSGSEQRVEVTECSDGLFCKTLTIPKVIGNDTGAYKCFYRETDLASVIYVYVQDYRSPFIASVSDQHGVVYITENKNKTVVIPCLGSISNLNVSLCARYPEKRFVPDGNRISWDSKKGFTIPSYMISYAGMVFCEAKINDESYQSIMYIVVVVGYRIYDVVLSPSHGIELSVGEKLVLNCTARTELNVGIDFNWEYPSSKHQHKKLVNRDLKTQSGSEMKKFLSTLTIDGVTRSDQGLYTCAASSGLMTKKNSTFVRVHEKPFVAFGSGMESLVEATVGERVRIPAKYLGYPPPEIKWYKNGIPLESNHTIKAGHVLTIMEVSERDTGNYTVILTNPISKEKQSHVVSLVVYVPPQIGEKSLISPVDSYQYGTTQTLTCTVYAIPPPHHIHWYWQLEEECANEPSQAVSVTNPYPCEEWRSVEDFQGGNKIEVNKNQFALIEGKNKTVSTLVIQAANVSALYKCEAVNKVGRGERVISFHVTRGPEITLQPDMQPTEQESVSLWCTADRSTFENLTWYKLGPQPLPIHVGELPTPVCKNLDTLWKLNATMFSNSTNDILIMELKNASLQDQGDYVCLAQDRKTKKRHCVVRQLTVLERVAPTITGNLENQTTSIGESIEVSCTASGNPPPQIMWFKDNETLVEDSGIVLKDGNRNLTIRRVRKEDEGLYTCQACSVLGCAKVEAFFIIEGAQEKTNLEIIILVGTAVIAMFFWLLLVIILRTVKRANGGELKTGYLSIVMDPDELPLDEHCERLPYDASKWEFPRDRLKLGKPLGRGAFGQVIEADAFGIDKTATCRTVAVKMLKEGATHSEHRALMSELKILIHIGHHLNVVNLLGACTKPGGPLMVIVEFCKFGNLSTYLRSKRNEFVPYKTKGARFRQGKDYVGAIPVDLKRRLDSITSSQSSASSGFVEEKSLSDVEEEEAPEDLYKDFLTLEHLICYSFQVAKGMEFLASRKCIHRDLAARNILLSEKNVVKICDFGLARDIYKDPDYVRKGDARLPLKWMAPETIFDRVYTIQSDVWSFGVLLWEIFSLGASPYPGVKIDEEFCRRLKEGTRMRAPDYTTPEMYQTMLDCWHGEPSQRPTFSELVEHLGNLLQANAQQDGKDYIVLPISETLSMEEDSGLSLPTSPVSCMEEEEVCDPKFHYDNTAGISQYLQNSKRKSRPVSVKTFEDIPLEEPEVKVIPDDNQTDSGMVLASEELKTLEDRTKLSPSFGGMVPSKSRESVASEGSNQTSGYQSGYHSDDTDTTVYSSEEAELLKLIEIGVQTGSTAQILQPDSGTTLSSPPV
Experiment: Inhibition of VEGFR2 in human MCF7 cells by horseradish peroxidase-coupled TMB substrate based ELISA
Assay type: cell-based

# Cpd smiles, Unit annotation, IC50
measured = [
    ("COc1cc(/C=N/NC(=O)COc2ccc(-c3nc4ccccc4s3)cc2OC)ccc1O", "nM", 170),
    ("COc1cc(-c2nc3ccccc3s2)ccc1OCC(=O)N/N=C/c1ccc(O)cc1", "nM", 190),
    ("COc1cc(-c2nc3ccccc3s2)ccc1OCC(=O)N/N=C/c1ccc([N+](=O)[O-])cc1", "nM", 180),
    ("COC(=O)COc1ccc(/C=N/NC(=O)COc2ccc(-c3nc4ccccc4s3)cc2OC)cc1OC", "nM", 130),
]
